Origin of measurements: PubChem BioAssay (NCI)

system: MDA-MB-468 breast; experiment: NCI tumour cell line growth inhibition, 48 h
Observed Property: TGI (µM)
// return numeric value only (unit: µM, not printed)

See these solved cases before continuing.
>  <Cpd Smiles>
COc1ccc2c(c1)c(-c1nc(-c3cn(C)c4ccncc34)cs1)cn2C

>  <Measurement Target>
MDA-MB-468 breast

>  <Observed Property>
TGI

>  <Measured Value>
3.2

$$$$
>  <Cpd Smiles>
Cc1cc2c(F)c(Oc3ncnc(Nc4ccc(N5C[C@@H](C)N[C@@H](C)C5)cc4)c3C#N)cc(F)c2[nH]1

>  <Measurement Target>
MDA-MB-468 breast

>  <Observed Property>
TGI

>  <Measured Value>
4.75

$$$$
>  <Cpd Smiles>
C=C(C)[C@@H]1CC[C@]2(CO)CC[C@]3(C)[C@H](CC[C@@H]4[C@@]5(C)CCCNC(C)(C)[C@@H]5CC[C@]43C)[C@@H]12

>  <Measurement Target>
MDA-MB-468 breast

>  <Observed Property>
TGI

>  <Measured Value>
3.38

$$$$
>  <Cpd Smiles>
COC(=O)/C=C1/SC(=Nc2cccc(Cl)c2)N(CCc2c[nH]c3ccc(O)cc23)C1=O

>  <Measurement Target>
MDA-MB-468 breast

>  <Observed Property>
TGI

>  <Measured Value>
4.4

$$$$
>  <Cpd Smiles>
C#CCN(C)CCCOc1ccc(N(CC)C(=O)c2cc(C(C)C)c(O)cc2O)cc1Cl

>  <Measurement Target>
MDA-MB-468 breast

>  <Observed Property>
TGI

>  <Measured Value>
0.462

$$$$

// TGI lookup, molecule = COc1cc2nc(N3CCCN(C)CC3)nc(NC3CCN(Cc4ccccc4)CC3)c2cc1OC , result: 3.19

Entry under test: CCC(CC)n1cnc2c(-c3cnc(N)cn3)nc(N3CC4CCC(C3)O4)nc21 . Its TGI was 2.81
